- experimentalSystem: human calcium receptor (Homo sapiens)
- Sequence (P41180 20-1078): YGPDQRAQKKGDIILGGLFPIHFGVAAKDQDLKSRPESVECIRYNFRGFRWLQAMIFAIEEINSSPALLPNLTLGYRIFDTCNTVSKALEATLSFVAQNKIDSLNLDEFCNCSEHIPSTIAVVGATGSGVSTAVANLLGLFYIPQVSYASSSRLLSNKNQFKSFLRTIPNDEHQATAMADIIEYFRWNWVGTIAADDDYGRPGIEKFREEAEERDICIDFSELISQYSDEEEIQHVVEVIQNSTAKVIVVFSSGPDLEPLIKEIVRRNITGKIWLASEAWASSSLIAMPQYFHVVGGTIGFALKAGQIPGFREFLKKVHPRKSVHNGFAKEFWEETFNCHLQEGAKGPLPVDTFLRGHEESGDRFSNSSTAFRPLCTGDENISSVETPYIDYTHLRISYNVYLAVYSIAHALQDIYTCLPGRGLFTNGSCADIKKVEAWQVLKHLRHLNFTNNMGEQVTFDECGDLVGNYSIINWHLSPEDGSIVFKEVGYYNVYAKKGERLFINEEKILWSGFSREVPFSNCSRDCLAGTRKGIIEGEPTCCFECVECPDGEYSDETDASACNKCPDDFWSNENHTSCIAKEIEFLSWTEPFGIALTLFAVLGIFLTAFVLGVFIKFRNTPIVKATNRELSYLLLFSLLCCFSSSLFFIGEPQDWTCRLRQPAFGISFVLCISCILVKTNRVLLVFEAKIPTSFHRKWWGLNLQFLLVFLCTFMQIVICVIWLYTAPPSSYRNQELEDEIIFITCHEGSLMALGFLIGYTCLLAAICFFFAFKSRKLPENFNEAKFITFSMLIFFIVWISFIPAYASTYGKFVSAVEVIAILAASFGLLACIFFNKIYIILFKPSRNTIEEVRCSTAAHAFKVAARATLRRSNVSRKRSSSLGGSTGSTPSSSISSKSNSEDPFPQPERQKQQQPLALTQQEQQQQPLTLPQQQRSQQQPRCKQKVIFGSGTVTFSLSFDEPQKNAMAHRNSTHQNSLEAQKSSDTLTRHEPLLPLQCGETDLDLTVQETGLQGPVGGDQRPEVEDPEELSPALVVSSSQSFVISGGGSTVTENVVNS
- procedureSummary: Activity on calcium receptors: fluo-3 fluorescence in HEK293 cells transfected with human calcium receptor gene
- appliedConditions: HEK293 cells transfected with plasmid pHuPCaR4.0 (human calcium receptor gene), loaded with fluo-3; 1 mM CaCl2, 1 mM MgCl2
measuredEndpoint: EC50 (nM)
Numbers only, in nM.

Solved cases below.
CCCCCCOc1cccc(C(C)NCCSc2cc(Cl)ccc2Cl)c1 (racemic)	9600
CC(NCCCCCSc1ccccc1Br)c1cccc2ccccc12 (centres unmarked)	140

# return EC50 for each item in the list
1. CC(NCCCNC(C)c1cccc2ccccc12)c1cccc2ccccc12 (centres unmarked)
2. COc1cccc(C(C)NCCCCCOc2cccc(Cl)c2)c1 (centres unmarked)
3. Cc1ccc(CN(Cc2ccc(OC(F)(F)F)cc2)C(=O)CCN[C@H](C)c2cccc3ccccc23)cc1
4. CC(C)c1ccccc1SCCNC(C)c1cccc2ccccc12 (centres unmarked)

Output:
110
1000
59
150

# return EC50 for each item in the list
1. COc1cccc(C(C)NCCCCCOc2ccc(Cl)cc2)c1 (centres unmarked)
2. Cc1cc(C)cc(SCCCCCCCN[C@H](C)c2cccc3ccccc23)c1
3. C[C@@H](NCCSc1cc(Cl)ccc1Cl)c1cccc2ccccc12
4. COc1cccc(C(C)NCCSc2cccc(C(F)(F)F)c2)c1 (centres unmarked)
5. C[C@@H](NCCCCSc1ccc(C(F)(F)F)cc1)c1cccc2ccccc12
6. CC(NCCC(=O)N(Cc1ccc(Cl)cc1)Cc1cccc(Cl)c1)c1cccc2ccccc12 (centres unmarked)
7. C[C@@H](NCCCCCSc1cc(Cl)c(Cl)cc1Cl)c1cccc2ccccc12
8. C[C@@H](NCCCCCSc1cc(Cl)ccc1Cl)c1cccc2ccccc12

Output:
1: 550; 2: 310; 3: 43; 4: 860; 5: 120; 6: 26; 7: 340; 8: 220
